Data origin, for the record: paper PMC4336329

- tgt: human ether-à-go-go-related gene (hERG) potassium channel (human, UniProt Q12809)
- Sequence (Q12809 whole entry, looked up): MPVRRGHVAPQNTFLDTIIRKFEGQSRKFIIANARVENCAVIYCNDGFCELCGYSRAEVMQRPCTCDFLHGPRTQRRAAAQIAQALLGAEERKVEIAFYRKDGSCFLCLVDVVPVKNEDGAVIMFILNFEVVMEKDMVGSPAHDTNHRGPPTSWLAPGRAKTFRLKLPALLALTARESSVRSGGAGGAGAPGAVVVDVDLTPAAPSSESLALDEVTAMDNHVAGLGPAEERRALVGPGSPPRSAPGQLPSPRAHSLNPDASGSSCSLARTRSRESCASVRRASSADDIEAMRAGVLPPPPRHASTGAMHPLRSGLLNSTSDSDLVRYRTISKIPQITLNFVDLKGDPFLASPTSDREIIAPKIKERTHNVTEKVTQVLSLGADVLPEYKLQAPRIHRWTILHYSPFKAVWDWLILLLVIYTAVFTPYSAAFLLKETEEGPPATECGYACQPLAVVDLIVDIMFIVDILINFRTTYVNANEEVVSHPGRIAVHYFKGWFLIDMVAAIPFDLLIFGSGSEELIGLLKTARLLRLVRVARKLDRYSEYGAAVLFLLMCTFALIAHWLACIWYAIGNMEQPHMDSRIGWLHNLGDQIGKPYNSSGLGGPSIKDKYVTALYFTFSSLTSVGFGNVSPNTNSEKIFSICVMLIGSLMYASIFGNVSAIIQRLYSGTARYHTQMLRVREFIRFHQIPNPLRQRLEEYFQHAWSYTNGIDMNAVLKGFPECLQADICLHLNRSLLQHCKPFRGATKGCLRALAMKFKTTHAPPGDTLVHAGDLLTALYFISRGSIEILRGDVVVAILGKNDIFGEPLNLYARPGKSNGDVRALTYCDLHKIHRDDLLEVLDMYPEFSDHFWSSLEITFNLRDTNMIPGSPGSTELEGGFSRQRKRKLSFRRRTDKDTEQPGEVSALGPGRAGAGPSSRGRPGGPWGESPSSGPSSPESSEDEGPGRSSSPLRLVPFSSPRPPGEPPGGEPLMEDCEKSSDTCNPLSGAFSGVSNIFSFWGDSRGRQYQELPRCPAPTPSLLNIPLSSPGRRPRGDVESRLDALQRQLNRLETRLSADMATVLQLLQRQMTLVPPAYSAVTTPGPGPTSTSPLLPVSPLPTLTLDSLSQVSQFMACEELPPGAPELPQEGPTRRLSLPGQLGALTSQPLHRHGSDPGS
- protocol.summary: primary screen, population patch clamp on CHO cells stably expressing hERG; higher = less effect of the substance
Screen size: about 310,000 compounds; about 14,000 (4.5%) showed an effect of 50% or more. Effects have a minus sign here. Many of the other results were omitted from the sample, so strong results are more common in it than they were.
Form field: hERG current change (%, negative = inhibition) at 10uM (one value per entry).
A complete answer gives the number followed by the unit.

Query: Enter reported hERG current change (%, negative = inhibition) at 10uM observed with human ether-à-go-go-related gene (hERG) potassium channel (human, UniProt Q12809) for CCc1cc(=O)oc2c(C)c(OCC(=O)NCCCn3ccnc3)ccc12
Result: -45.9%

Query: API: value(readout=hERG current change (%, negative = inhibition) at 10uM, system=human ether-à-go-go-related gene (hERG) potassium channel (human, UniProt Q12809)) for record COC(=O)COc1ccc2c(-c3ccc(OC)cc3)cc(=O)oc2c1;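 also: peak tail current of the secondary pulse compared with the same well before compound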
Result: -39.2%

Query: Request body: readout hERG current change (%, negative = inhibition) at 10uM, system human ether-à-go-go-related gene (hERG) potassium channel (human, UniProt Q12809), query CCN(CC)CCn1c(NS(=O)(=O)c2ccc(Cl)cc2)nc2ccccc21.Cl . Return the value.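 Also: peak tail current of the secondary pulse compared with the same well before compound.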
Result: -69.8%

Query: Recorded hERG current change (%, negative = inhibition) at 10uM for CCN(CC)CCn1c(NS(=O)(=O)c2ccc(C)cc2)nc2ccccc21 with human ether-à-go-go-related gene (hERG) potassium channel (human, UniProt Q12809), please?
Result: -51%

Query: Form entry - test system: human ether-à-go-go-related gene (hERG) potassium channel (human, UniProt Q12809); read-out: hERG current change (%, negative = inhibition) at 10uM; compound: Cc1cccc(N2CCN(CC(=O)Nc3ccc(-n4cnnn4)cc3)CC2)c1C;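 also: peak tail current of the secondary pulse compared with the same well before compound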
Result: 12.8%

Query: What reported hERG current change (%, negative = inhibition) at 10uM corresponds to CC(C)Cc1nnc(NC(=O)C2CC(=O)N(Cc3ccccc3)C2)s1 (stereo not drawn) on human ether-à-go-go-related gene (hERG) potassium channel (human, UniProt Q12809)?
Result: 0.385%

Query: # returns recorded hERG current change (%, negative = inhibition) at 10uM (system: human ether-à-go-go-related gene (hERG) potassium channel (human, UniProt Q12809)) for CC(=O)COc1ccc2c(-c3ccccc3)cc(=O)oc2c1;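 also: peak tail current of the secondary pulse compared with the same well before compound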
Result: -1.91%

Query: Record Cc1ccccc1NC(=O)c1ccc2ccccc2c1 : what is its hERG current change (%, negative = inhibition) at 10uM with human ether-à-go-go-related gene (hERG) potassium channel (human, UniProt Q12809)?
Result: -8.12%

Query: Look up hERG current change (%, negative = inhibition) at 10uM with human ether-à-go-go-related gene (hERG) potassium channel (human, UniProt Q12809) for this compound: CCCCc1nc(NCc2ccccc2)c(C#N)c2c1COC(C)(C)C2
Result: 12.9%

---

- tgt: human ether-à-go-go-related gene (hERG) potassium channel (human, UniProt Q12809)
- protocol.summary: primary screen, population patch clamp on CHO cells stably expressing hERG; higher = less effect of the substance
In all, about 310,000 compounds went through this assay and about 14,000 (4.5%) showed an effect of 50% or more. Effects have a minus sign here. The full list was thinned out, with strong results kept by preference.
Each record here notes measured hERG current change (%, negative = inhibition) at 10uM.
Output spec: scalar in %, unitless text.

Worked examples, 3 compounds total:
compound	measured.value
O=C(Nc1ccc2c(c1)OCO2)C1Cc2ccccc2CN1S(=O)(=O)c1cccs1 (centres unmarked)	4.05
CCNC(=O)c1ccccc1NC(=O)c1cccc(S(=O)(=O)N2CCC(C)CC2)c1	-55.4
Cc1cccc(-c2nc3c(c(=O)c4ccccc4n3C)c(=O)n2-c2ccccc2)c1	14

Query: Need hERG current change (%, negative = inhibition) at 10uM of N/C(=N\OC(=O)COc1ccc(Br)cc1)c1cccnc1 , thanks.
Result: -3.21

Query: Which hERG current change (%, negative = inhibition) at 10uM is reported for this compound? CC1(C)Cc2c(sc(NC(=O)c3ccc(S(=O)(=O)N4CCCCCC4)cc3)c2C#N)C(C)(C)N1
Result: -65.8

Query: hERG current change (%, negative = inhibition) at 10uM lookup needed for CC1CCN(S(=O)(=O)c2cccc(C(=O)Nc3ccccc3)c2)CC1 , thanks.
Result: -9.3

Query: Entry Cn1ncc(Cl)c1C(=O)N1CCN(c2cccc(Cl)c2)CC1 has what hERG current change (%, negative = inhibition) at 10uM?
Result: -8.7

Query: # get_value(readout='hERG current change (%, negative = inhibition) at 10uM', item= Cc1ccc(-c2cc(-c3ccc(C)cc3)[n+](-c3ccc(C(=O)O)cc3)c(-c3ccc(C)cc3)c2)cc1.[O-][Cl+3]([O-])([O-])[O-] )
Result: 26.5

Query: Fill in: hERG current change (%, negative = inhibition) at 10uM of Cc1ccc(-c2nnc(Cc3ccc(Cl)cc3)o2)cc1 is ___
Result: 8.63

Query: Entry under review: COC(=O)c1ccc(CSc2nnc3n(Cc4ccccc4OC)c(=O)c4ccccc4n23)o1 . Reported hERG current change (%, negative = inhibition) at 10uM?
Result: -19.3

Query: So what's the measured hERG current change (%, negative = inhibition) at 10uM for this one? Clc1ccc2oc(-c3cccnc3)nc2c1
Result: -14.9

Query: # lookup: hERG current change (%, negative = inhibition) at 10uM of O=C(Nc1cc(=O)[nH]c2ncnn12)c1ccccc1Cl
Result: 1.15

Query: Report hERG current change (%, negative = inhibition) at 10uM for Cc1ccccc1NC(=O)c1cccc(S(=O)(=O)N2CCOCC2)c1 please.
Result: 31.9

Query: Bench note: what hERG current change (%, negative = inhibition) at 10uM did Cc1ccc(-c2nnc(Cc3ccc([N+](=O)[O-])cc3)o2)cc1 show?
Result: -64.9

Query: Recorded hERG current change (%, negative = inhibition) at 10uM of Cc1cc(C)c2nc(SCC#N)cc(C)c2c1 , please.
Result: 13.5

Query: Bench note: what hERG current change (%, negative = inhibition) at 10uM did COc1ccc(-n2nnnc2SCC(=O)Nc2cc(OC)c([N+](=O)[O-])cc2C)cc1 show?
Result: 42.4

Query: For the compound Cc1cc(-n2cnnn2)cc(C)c1S(=O)(=O)NCCOc1ccccc1 , what hERG current change (%, negative = inhibition) at 10uM is on record?
Result: -38.5

Query: Fill in: hERG current change (%, negative = inhibition) at 10uM of Cc1ccc(OCC(O)CNC2CCCC2)c(C)c1.Cl (centres unmarked) is ___
Result: 7.48

Query: Find the recorded hERG current change (%, negative = inhibition) at 10uM belonging to Cc1ccc(CN2CCN(/N=C/c3ccc(Cl)c([N+](=O)[O-])c3)CC2)cc1 and report it.
Result: -4.43

Query: Look up hERG current change (%, negative = inhibition) at 10uM: COc1ccc2[nH]c(C)c(CCNC(=S)Nc3ccccc3OC)c2c1
Result: 8.79
